Parameter: half-life. Scope: all listed entries.
# method_notes: Half-lives of hydrolysis of the prodrugs in phosphate buffer at pH 7.4
# condition_parameters: pH 7.4
assay_metric: half-life (h)

{"structure_notation": "CC[C@@]1(OC(=O)COCC(=O)OCCN(C)C)C(=O)OCc2c1cc1n(c2=O)Cc2cc3ccccc3nc2-1", "comparison_operator": "=", "obs_value": 0.0833}
{"structure_notation": "COC(=O)COCC(=O)Oc1cc(/C=C\\c2cc(OC)c(OC)c(OC)c2)ccc1OC", "comparison_operator": ">", "obs_value": 48}
{"structure_notation": "CC[C@@]1(OC(=O)COCC(=O)OCCOCCN(C)C)C(=O)OCc2c1cc1n(c2=O)Cc2cc3ccccc3nc2-1", "comparison_operator": "=", "obs_value": 3}
{"structure_notation": "COCCOCCOCC(=O)Oc1cc(/C=C\\c2cc(OC)c(OC)c(OC)c2)ccc1OC", "comparison_operator": "=", "obs_value": 10}
{"structure_notation": "CC[C@@]1(OC(=O)COCCOCCO)C(=O)OCc2c1cc1n(c2=O)Cc2cc3ccccc3nc2-1", "comparison_operator": "=", "obs_value": 30}
{"structure_notation": "COc1ccc(/C=C\\c2cc(OC)c(OC)c(OC)c2)cc1OC(=O)COCC(=O)O", "comparison_operator": "=", "obs_value": 4}
{"structure_notation": "CC[C@@]1(OC(=O)COCCOCCOC)C(=O)OCc2c1cc1n(c2=O)Cc2cc3ccccc3nc2-1", "comparison_operator": "=", "obs_value": 25}
{"structure_notation": "CC[C@@]1(OC(=O)COCC(=O)OC)C(=O)OCc2c1cc1n(c2=O)Cc2cc3ccccc3nc2-1", "comparison_operator": "=", "obs_value": 6.1}

###

# method_notes: Half-lives of hydrolysis of the prodrugs in human serum
# condition_parameters: Half-life of hydrolysis, Serum
assay_metric: log10 of half-life (log10 of the value in min)

{"molecule": "CC(C)(C)OC(=O)COCC(=O)OCCOCn1cnc2c(=O)[nH]c(N)nc21", "obs_value": 0.43}
{"molecule": "CC(C)c1nc(CN(C)C(=O)N[C@H](C(=O)N[C@@H](Cc2ccccc2)C[C@H](OC(=O)COCC(=O)OCCOCCN(C)C)[C@H](Cc2ccccc2)NC(=O)OCc2cncs2)C(C)C)cs1", "obs_value": 1.78}
{"molecule": "Cc1cn(C2CC(N=[N+]=[N-])C(COC(=O)COCCOCCO)O2)c(=O)[nH]c1=O (centres unmarked)", "obs_value": 1.30}
{"molecule": "COCCOCCOCC(=O)O[C@H](CN1CC[C@H]2CCCC[C@H]2[C@H]1C(=O)NC(C)(C)C)[C@H](Cc1ccccc1)NC(=O)[C@H](CC(N)=O)NC(=O)c1ccc2ccccc2n1", "obs_value": 2.78}
{"molecule": "COCCOCCOCC(=O)OCCOCn1cnc2c(=O)[nH]c(N)nc21", "obs_value": 0.00}
{"molecule": "CC(C)(C)NC(=O)[C@@H]1[C@@H]2CCCC[C@@H]2CCN1C[C@@H](OC(=O)COCCOCCO)[C@H](Cc1ccccc1)NC(=O)[C@H](CC(N)=O)NC(=O)c1ccc2ccccc2n1", "obs_value": 2.56}
{"molecule": "COCCOCCOCC(=O)OCC1CCC(n2ccc(N)nc2=O)O1 (centres unmarked)", "obs_value": 0.65}
{"molecule": "COCCOCCOCC(=O)Nc1ccn(C2CCC(COC(=O)COCCOCCOC)O2)c(=O)n1 (centres unmarked)", "obs_value": 1.54}
{"molecule": "CN(C)CCOCCOC(=O)COCC(=O)OCC1CCC(n2cnc3c(=O)[nH]cnc32)O1 (centres unmarked)", "obs_value": 0.48}
{"molecule": "COCCOCCOCC(=O)OCC1OC(n2cc(C)c(=O)[nH]c2=O)CC1N=[N+]=[N-] (centres unmarked)", "obs_value": 1.38}
{"molecule": "CC(C)OC(=O)COCC(=O)Nc1ccn(C2CCC(COC(=O)COCC(=O)OC(C)C)O2)c(=O)n1 (centres unmarked)", "obs_value": 0.99}
{"molecule": "CC(C)(C)OC(=O)COCC(=O)OCC1CCC(n2ccc(N)nc2=O)O1 (centres unmarked)", "obs_value": 0.23}
{"molecule": "COCCOCC(=O)OCn1c(=O)[nH]cc(F)c1=O", "obs_value": -0.30}
{"molecule": "COCCOCCOCC(=O)OCn1cc(F)c(=O)[nH]c1=O", "obs_value": 0.95}
{"molecule": "COCCOCCOCC(=O)OCn1c(=O)[nH]cc(F)c1=O", "obs_value": 0.00}
{"molecule": "CC(C)(C)OC(=O)COCC(=O)Nc1ccn(C2CCC(COC(=O)COCC(=O)OC(C)(C)C)O2)c(=O)n1 (centres unmarked)", "obs_value": 1.02}
{"molecule": "CC(C)(C)NC(=O)[C@@H]1[C@@H]2CCCC[C@@H]2CCN1C[C@@H](OC(=O)COCC(=O)OC(C)(C)C)[C@H](Cc1ccccc1)NC(=O)[C@H](CC(N)=O)NC(=O)c1ccc2ccccc2n1", "obs_value": 3.08}
{"molecule": "COc1ccc(/C=C\\c2cc(OC)c(OC)c(OC)c2)cc1OC(=O)COCC(=O)OC(C)(C)C", "obs_value": 0.87}
{"molecule": "COCCOCC(=O)OCCOCn1cnc2c(=O)[nH]c(N)nc21", "obs_value": 0.74}
{"molecule": "CC(C)c1nc(CN(C)C(=O)N[C@H](C(=O)N[C@@H](Cc2ccccc2)C[C@H](OC(=O)COCC(=O)O)[C@H](Cc2ccccc2)NC(=O)OCc2cncs2)C(C)C)cs1", "obs_value": 3.38}
{"molecule": "COCCOCCOCC(=O)OCC(CO)OCn1cnc2c(=O)[nH]c(N)nc21 (centres unmarked)", "obs_value": 1.08}
{"molecule": "COCCOCC(=O)OCC1OC(n2cc(C)c(=O)[nH]c2=O)CC1N=[N+]=[N-] (centres unmarked)", "obs_value": 0.56}
{"molecule": "COC(=O)COCC(=O)O[C@@H](C[C@H](Cc1ccccc1)NC(=O)[C@@H](NC(=O)N(C)Cc1csc(C(C)C)n1)C(C)C)[C@H](Cc1ccccc1)NC(=O)OCc1cncs1", "obs_value": 2.16}
{"molecule": "CC(C)OC(=O)COCC(=O)O[C@H](CN1CC[C@H]2CCCC[C@H]2[C@H]1C(=O)NC(C)(C)C)[C@H](Cc1ccccc1)NC(=O)[C@H](CC(N)=O)NC(=O)c1ccc2ccccc2n1", "obs_value": 2.78}
{"molecule": "CN(C)CCOC(=O)COCC(=O)O[C@H](CN1CC[C@H]2CCCC[C@H]2[C@H]1C(=O)NC(C)(C)C)[C@H](Cc1ccccc1)NC(=O)[C@H](CC(N)=O)NC(=O)c1ccc2ccccc2n1", "obs_value": 3.32}
{"molecule": "CC[C@@]1(OC(=O)COCCOC)C(=O)OCc2c1cc1n(c2=O)Cc2cc3ccccc3nc2-1", "obs_value": 2.08}
{"molecule": "CC(C)OC(=O)COCC(=O)OCC1CCC(n2cnc3c(=O)[nH]cnc32)O1 (centres unmarked)", "obs_value": 0.70}
{"molecule": "COCCOCC(=O)OCC1CCC(n2cnc3c(=O)[nH]cnc32)O1 (centres unmarked)", "obs_value": 0.34}
{"molecule": "CC(C)c1nc(CN(C)C(=O)N[C@H](C(=O)N[C@@H](Cc2ccccc2)C[C@H](OC(=O)COCCOCCO)[C@H](Cc2ccccc2)NC(=O)OCc2cncs2)C(C)C)cs1", "obs_value": 3.16}
